Target: T1, Upf1-HD-His6 (Saccharomyces cerevisiae, UniProt P30771 221-851)
T1 sequence: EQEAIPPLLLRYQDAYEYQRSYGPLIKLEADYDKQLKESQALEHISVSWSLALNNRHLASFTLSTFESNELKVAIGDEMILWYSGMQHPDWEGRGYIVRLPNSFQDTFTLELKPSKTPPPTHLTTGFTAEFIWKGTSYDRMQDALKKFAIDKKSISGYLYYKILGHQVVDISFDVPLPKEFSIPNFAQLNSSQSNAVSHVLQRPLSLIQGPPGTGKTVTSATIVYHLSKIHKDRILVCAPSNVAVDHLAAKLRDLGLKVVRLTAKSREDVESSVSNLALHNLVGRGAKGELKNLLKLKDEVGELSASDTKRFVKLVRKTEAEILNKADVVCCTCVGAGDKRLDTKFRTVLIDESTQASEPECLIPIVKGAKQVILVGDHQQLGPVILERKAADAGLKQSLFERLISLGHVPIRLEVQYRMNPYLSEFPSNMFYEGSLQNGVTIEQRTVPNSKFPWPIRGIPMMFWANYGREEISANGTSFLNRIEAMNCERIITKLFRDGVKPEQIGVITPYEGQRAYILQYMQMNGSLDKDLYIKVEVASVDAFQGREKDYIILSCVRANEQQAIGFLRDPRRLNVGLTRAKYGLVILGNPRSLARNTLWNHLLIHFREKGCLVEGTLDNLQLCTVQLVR
Assay: ITC; no nucleotide; 5 mM Mg2+; ITC: 100 mM Bis-Tris pH 6.5, 133 mM NaCl, 5 mM MgCl2, 5 mM 2-mercaptoethanol, 20 C; protein 20-30 uM in cell titrated with 230-280 uM RNA
Conditions: protein: recombinant; tags: C-terminal His6; single strand
propertyName: Kd (nM)

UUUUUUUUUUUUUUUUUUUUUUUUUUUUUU (ssRNA) [RNA poly(U)30]: 1030
